The entries below come with measured cytotoxicity at 70.5 h values attached.
test: Human HepG2 cell viability assay in 384 well format
Type: toxicity, cell-based
Set-up: dose 125 nL, time 70.5 hour; concentration not given beside the values
assay.setup: HepG2 cells, read-out: Inhibition

compound: CCC[C@H]1CN(S(=O)(=O)c2ccc(-c3c(C)noc3C)s2)C[C@@H]1N
cytotoxicity at 70.5 h / %: -4.66
--
compound: Cc1cc(O)nc(C2CCCN(Cc3ccncc3)C2)n1 (centres undefined)
cytotoxicity at 70.5 h / %: -0.0773
--
compound: COCCC(=O)N1Cc2[nH]nc(COc3cccnc3)c2C1
cytotoxicity at 70.5 h / %: -13.5
--
compound: O=C(c1cnccn1)N1CCCC2(CCN(c3ccccn3)C2)C1 (centres undefined)
cytotoxicity at 70.5 h / %: 19.3

---

Form field: cytotoxicity at 70.5 h (one value per entry).
test: Human HepG2 cell viability assay in 384 well format
Format: toxicity, cell-based
Parameters: dose 125 nL, time 70.5 hour; concentration not given beside the values
assay.setup: HepG2 cells, read-out: Inhibition

molecule: COc1cc(F)cc(CNC(=O)Nc2ccn(CC(F)F)n2)c1
cytotoxicity at 70.5 h, %: -2.34
//
molecule: Cn1cc(Cl)c(C(=O)N2CCC(N3CCc4ccccc4C3)CC2)n1
cytotoxicity at 70.5 h, %: -6.46
//
molecule: Cc1nonc1CN(C)Cc1nc(-c2cccc(F)c2F)oc1C
cytotoxicity at 70.5 h, %: -7.8
//
molecule: CCc1ccc(C(=O)NC2CCN(c3ccn(C)n3)C2)o1 (centres undefined)
cytotoxicity at 70.5 h, %: -2.13
//
molecule: Clc1ccc(CN(CCN2CCOCC2)Cc2cccnc2)c(Cl)c1
cytotoxicity at 70.5 h, %: -5.57
//
molecule: CC(C(=O)N1CCOCC1)S(=O)(=O)Cc1nc(C(C)(C)C)no1 (centres undefined)
cytotoxicity at 70.5 h, %: -9.65
//
molecule: CN(C)C(=O)CN1CCC2(CCCN(Cc3cccnc3)C2)C1=O (centres undefined)
cytotoxicity at 70.5 h, %: -12
//
molecule: Cc1occc1C(=O)N1CC(C(=O)N2CCOCC2)C2(CCOCC2)C1 (centres undefined)
cytotoxicity at 70.5 h, %: 6.2
//
molecule: Cc1ccncc1C(=O)N1C[C@H]2CN(CC3CCC3)C[C@@]2(C(=O)O)C1
cytotoxicity at 70.5 h, %: -8.6
//
molecule: O=C(NCCN1CCOCC1)c1n[nH]c(=O)c2ccccc12
cytotoxicity at 70.5 h, %: -10.8
//
molecule: COc1ccc(CN(C)CC(O)COCc2ccccc2Cl)c(OC)c1 (centres undefined)
cytotoxicity at 70.5 h, %: 16.2
//
molecule: O=S(=O)(Nc1cnc(N2CCOCC2)nc1)c1ccc(Cl)cc1
cytotoxicity at 70.5 h, %: 3.18
//
molecule: NC(=O)c1cccc(-c2cnc(C3CCCNC3)cn2)c1 (centres undefined)
cytotoxicity at 70.5 h, %: -7.33
//
molecule: Cc1cc(C(F)(F)F)cc(N2C[C@@H](CN(C)CCO)[C@@H](CO)C2)n1
cytotoxicity at 70.5 h, %: 2.18
//
molecule: O=C(CCc1nc2cc(Br)cnc2[nH]1)NCCN1CCOCC1
cytotoxicity at 70.5 h, %: -10.2
//
molecule: COCCC1(C(=O)O)CCCN(C(=O)c2cnc3c(c2)CCCC3)C1 (centres undefined)
cytotoxicity at 70.5 h, %: -14.8
//
molecule: NC(=O)CCn1cc(CNCCCc2ccccc2O)c2ccccc21
cytotoxicity at 70.5 h, %: 8.33
//
molecule: CCNC(=O)N1CCC(NC(=O)NCCc2ccc(C)cc2C)C1 (centres undefined)
cytotoxicity at 70.5 h, %: -3.65
//
molecule: COc1ccc(-c2csc3c2c(N)nc(=O)n3CCN(C)C)cc1
cytotoxicity at 70.5 h, %: -7.62
//
molecule: COc1cccc(-n2c(C)cc(C(=O)NS(C)(=O)=O)c2C)c1
cytotoxicity at 70.5 h, %: -1.93
//
molecule: COCCN(C)C[C@@H]1CN(C(=O)c2ccc(O)c(C)c2)C[C@@H]1CO
cytotoxicity at 70.5 h, %: -2.33
//
molecule: Cc1noc(OCC(=O)N2CCCCC2C)n1 (centres undefined)
cytotoxicity at 70.5 h, %: -3.19
//
molecule: Cc1ccn(CCC(=O)NC(C)Cc2ccco2)n1 (centres undefined)
cytotoxicity at 70.5 h, %: -6.56
//
molecule: O=C(CSC1CCc2ccccc2NC1=O)NCCO (centres undefined)
cytotoxicity at 70.5 h, %: 2.81
//
molecule: O=C(CC1CCC2(CC1)CCN(Cc1nccs1)CC2)N1CC=CC1
cytotoxicity at 70.5 h, %: -3.04
//
molecule: COc1cccc(NC(=O)CNc2ccc(C(=O)N(C)C)c(Cl)c2)c1
cytotoxicity at 70.5 h, %: -4.79
//
molecule: CCN(CCC#N)Cn1ncc2cn(-c3ccccc3)nc2c1=O
cytotoxicity at 70.5 h, %: -2.4
//
molecule: O=C(NCc1cccc(Cl)c1)C1=NOC2(CCNC2)C1 (centres undefined)
cytotoxicity at 70.5 h, %: -6.34
//
molecule: COC1CCN(CCNC(=O)C2CCCCC2)CC1
cytotoxicity at 70.5 h, %: -7.3
//
molecule: CN(C)CC1CN(CCOc2cccc(C#N)c2)CCO1 (centres undefined)
cytotoxicity at 70.5 h, %: 0.102
//
molecule: CCC(C)NC(=O)CCc1ccnc2ccccc12 (centres undefined)
cytotoxicity at 70.5 h, %: 2.59
//
molecule: CS(=O)(=O)c1cc(Cl)cnc1C1CCN(C(=O)C2CCCO2)CC1 (centres undefined)
cytotoxicity at 70.5 h, %: -5.11
//
molecule: CN(C)C[C@H]1C[C@@H](CO)CN(C(=O)CCc2nc(Cl)n[nH]2)C1
cytotoxicity at 70.5 h, %: 4.5
//
molecule: O=C(Cc1cccs1)NCC(=O)Nc1cn[nH]c1
cytotoxicity at 70.5 h, %: -11.9
//
molecule: CCn1cc(N2Cc3nc(N4CCN(C)CC4)ncc3C2=O)cn1
cytotoxicity at 70.5 h, %: -7.74
//
molecule: Cc1occc1C(=O)N1CCC(C(O)c2ccc(F)cc2)CC1 (centres undefined)
cytotoxicity at 70.5 h, %: -4.29
//
molecule: O=C(NC[C@H]1OC[C@@H](NCc2ccccc2)[C@@H]1O)Nc1ccc(F)cc1
cytotoxicity at 70.5 h, %: -4.13
//
molecule: O=C1CC2(CCN(Cc3ccsc3)C2)CN1c1ccc2c(c1)OCO2 (centres undefined)
cytotoxicity at 70.5 h, %: 10.9
//
molecule: COc1ccc(CCN)cc1-c1ccc(S(C)(=O)=O)cc1
cytotoxicity at 70.5 h, %: -8.83

---

test: Human HepG2 cell viability assay in 384 well format
Assay type: toxicity, cell-based
Parameters: dose 125 nL, time 70.5 hour; concentration not given beside the values
assay.setup: HepG2 cells, read-out: Inhibition

compound: c1cnc(N2CCC3(CCN(CC4CCOC4)CC3)C2)nc1 (stereo unspecified)
cytotoxicity at 70.5 h / %: -1.96
//
compound: Cc1nnc(N2CCCC(CS(N)(=O)=O)C2)c(C#N)c1C (stereo unspecified)
cytotoxicity at 70.5 h / %: -2.95
//
compound: Cc1cc(C(=O)N2C[C@H]3CC[C@@H]2CN(C)C3)ccc1Cl
cytotoxicity at 70.5 h / %: 29.4
//
compound: CCc1cnc(N)nc1NCCC(=O)NC1CCCCC1
cytotoxicity at 70.5 h / %: -25.4
//
compound: O=C(NCc1ccccc1CN1CCC(O)CC1)Nc1cccnc1
cytotoxicity at 70.5 h / %: -4.5
//
compound: CC(=O)N1CCCC(C(=O)N2CCN(Cc3cc(C)on3)CC2)C1 (stereo unspecified)
cytotoxicity at 70.5 h / %: 2.35
//
compound: C=C(Cl)CN(C)C1CCN(CCc2ccccn2)CC1
cytotoxicity at 70.5 h / %: -6.31
//
compound: CC(C)c1ccn(C2(C(=O)O)CCN(c3ccncc3F)CC2)n1
cytotoxicity at 70.5 h / %: -4.07
//
compound: Cc1cnn(CC2CN(Cc3cccc(C(N)=O)c3)CCO2)c1 (stereo unspecified)
cytotoxicity at 70.5 h / %: -9.19
//
compound: O=C(c1cncc(N2CCCC3(CCNCC3)CC2)n1)N1CCCCC1
cytotoxicity at 70.5 h / %: 8.06
//
compound: Cc1ccccc1CNC(=O)N1C[C@H]2C[C@H](C(=O)N(C)C)[C@@H](C1)O2
cytotoxicity at 70.5 h / %: -5.69
//
compound: Cc1cnn(CC(C)NCc2ccc(OCc3noc(C)n3)cc2)c1 (stereo unspecified)
cytotoxicity at 70.5 h / %: -0.0911
//
compound: Cc1cnc(CN(Cc2ccc(C#N)cc2F)C2CCN(C)C2)o1 (stereo unspecified)
cytotoxicity at 70.5 h / %: -8.53
//
compound: Fc1ccc(CC2CCN(Cc3nccs3)CC2)cc1
cytotoxicity at 70.5 h / %: -7.34
//
compound: COCCN1CC[C@@H]2CN(Cc3nccn3C)C[C@@H]2C1
cytotoxicity at 70.5 h / %: 8.43
//
compound: O=C(Nc1ncc[nH]1)c1cc(-c2cccnc2)n[nH]1
cytotoxicity at 70.5 h / %: -2.08
//
compound: CCc1noc(-c2cccc(C(=O)O)c2)n1
cytotoxicity at 70.5 h / %: 23.7
//
compound: CCOC(=O)[C@H]1CNC[C@@H]1C(F)(F)F
cytotoxicity at 70.5 h / %: -11.1
//
compound: Cc1cc(NC(=O)CNC2CCCN(c3cccnn3)C2)on1 (stereo unspecified)
cytotoxicity at 70.5 h / %: 43.8
//
compound: CN(C)C(=O)Cn1cc(C(=O)N2CCCc3cccc(F)c32)nn1
cytotoxicity at 70.5 h / %: -17.3
//
compound: Cn1c(CN2CCCCC2)nnc1C1CCCN(C(=O)CCC(N)=O)C1 (stereo unspecified)
cytotoxicity at 70.5 h / %: -9
//
compound: CC1CN(C)CCN1C(=O)c1ccn(-c2ccccc2)n1 (stereo unspecified)
cytotoxicity at 70.5 h / %: 17.4
//
compound: COCCc1noc(CN2CCCC2Cn2cccn2)n1 (stereo unspecified)
cytotoxicity at 70.5 h / %: -9.31
//
compound: CN1CCOC(CNCc2ccccc2OCc2ccccn2)C1 (stereo unspecified)
cytotoxicity at 70.5 h / %: -9.16
//
compound: CCc1n[nH]c(C2CN(C(=O)c3ccc4c(c3)COC4)CCO2)n1 (stereo unspecified)
cytotoxicity at 70.5 h / %: 18
//
compound: c1ccc(COC[C@@H]2CC[C@H]3[C@H](CCN3c3ncccn3)O2)nc1
cytotoxicity at 70.5 h / %: -9.8
//
compound: CC(C)CN1CCN(S(=O)(=O)c2cn(C)cn2)[C@H]2CS(=O)(=O)C[C@H]21
cytotoxicity at 70.5 h / %: -9.12
//
compound: CCn1nc2c(cc1=O)CN(CC(=O)Nc1nnc(C)s1)CC2
cytotoxicity at 70.5 h / %: -15
//
compound: Cc1cccc(OCCNC(=O)CN2CCCC2Cn2cccn2)c1 (stereo unspecified)
cytotoxicity at 70.5 h / %: -15.8
//
compound: O=C(c1ccco1)N1CC[C@@H](N2CCOCC2)[C@@H]1Cc1ccncc1
cytotoxicity at 70.5 h / %: -4.82
//
compound: O=C(Nc1cccnc1)[C@H]1C[C@@H]2CN(C(=O)NC3CCCC3)C[C@H]1O2
cytotoxicity at 70.5 h / %: -1.2
//
compound: CCOC(=O)CNC(=O)c1cc(-c2ccccc2)nc2ncnn12
cytotoxicity at 70.5 h / %: 1.18
//
compound: CC(=O)N1CCCC2(C1)CN(c1nncs1)CCO2 (stereo unspecified)
cytotoxicity at 70.5 h / %: -4.62
//
compound: Cc1nc(-c2ccco2)ccc1C(=O)N1CCc2nnc(N)cc2C1
cytotoxicity at 70.5 h / %: -1.99
//
compound: CC(C)OCc1ncn2c1CN(Cc1ccoc1)CCC2
cytotoxicity at 70.5 h / %: -11.8
//
compound: CCCNC(=O)CN1CCOC(CC)C1 (stereo unspecified)
cytotoxicity at 70.5 h / %: -15.7
//
compound: CC(C)(C)S(=O)(=O)c1ccc(N2CCN(c3ccccn3)CC2)nn1
cytotoxicity at 70.5 h / %: -17.1
//
compound: O=C(c1ccnnc1)N1CCc2onc(CN3CCCC3)c2C1
cytotoxicity at 70.5 h / %: -3.95
//
compound: CC1CCN(S(=O)(=O)NCc2ccccc2Cn2cncn2)CC1
cytotoxicity at 70.5 h / %: -2.92
//
compound: CCC(CC)C(O)CNC(=O)Nc1cc(C)nn1C (stereo unspecified)
cytotoxicity at 70.5 h / %: -17.8
//
compound: COCCNC(=O)NCCS(=O)(=O)N1CCN(c2cccc(C)c2)CC1
cytotoxicity at 70.5 h / %: -12.5
